Cited source for all entries: PubChem BioAssay (NCI)

- Tested on: HL-60(TB) leukemia
- METHOD: NCI-60 one-dose screen, 48 h (100 = growth as untreated, 0 = no growth, -100 = all killed)
- SETUP CONDITIONS: 10 µM unless noted
The panel holds about 83,000 compounds, 20% with a hit somewhere; the sample as a whole holds those more often.
// reported growth for each item listed
Write the answer as a number in %, unit excluded.

These recorded examples may help you get a feel for the data.
> print(dat)
                                   compound  quantity.name  unit.label  observed.result
1  Cc1ccccc1NC(=O)c1sc2nc3c(cc2c1N)C(=O)CCC3         growth           %               36
2  O=C(CSc1nnnn1-c1ccccc1)Nc1ccc(Oc2ccccc2)cc1         growth           %              110
3                    N=c1sc2ccccc2n1CC(=O)O         growth           %              114

Value sought: growth, system HL-60(TB) leukemia, item CC1Cc2c(N(C)C)ncnc2N(C)c2ccc(Cl)cc21 (stereo unspecified) . Result: -7.29

Field growth (HL-60(TB) leukemia), entry "CCCN(CCC)CCCNC(=O)c1cc2c(-c3ccc(OC)c(OC)c3)nn(C)c2s1" : -13.4

Noted growth for "Cc1ccc(-c2csc(NC(=O)CSc3nc(N)cc(N)n3)n2)cc1" , tested on HL-60(TB) leukemia: 48.9

----------
- System: HL-60(TB) leukemia
- METHOD: NCI-60 one-dose screen, 48 h
- SETUP CONDITIONS: 10 µM unless noted
This is part of a sample that, as a whole, favours compounds with a hit. Of some 83,000 tested, about 20% had one in any assay. The source made the active and inactive calls. Rule for the calls: active = growth percent below 10; inactive = the rest.
Please reply with one of these outcomes: label 1 for active, label 0 for inactive

MOLECULE	ASSIGNED LABEL
Cc1ccc(C2=NN3C(C2)c2cc(Br)ccc2OC32CCN(Cc3ccccc3)CC2)o1 (centres undefined)	label 0
COc1cc(C2CC(c3cccc(Nc4ccncc4)c3)=NN2c2cc(Cl)cc(Cl)c2)cc(OC)c1OC (centres undefined)	label 1
O=C(CCl)Oc1ccc(OC(=O)CCl)cc1	label 1
COc1cc(NC(C)CCCN2C(=O)c3ccccc3C2=O)c2nc(C)ccc2c1OC (centres undefined)	label 0

Please indicate how the test categorized "COc1cc(/C=C/CO)cc(OC)c1O[C@@H]1O[C@H](CO)[C@@H](O)[C@H](O)[C@H]1O" .
label 0

Which outcome was assigned to "CCCc1cccc(CCC)c1NC(=O)Nc1cc(Cl)cc(Cl)c1" in this test?
label 0

What call does the record list for "C[C@H]1[C@H]2[C@H]3CC[C@@H]4[C@@]5(C)CC[C@H](O)C(C)(C)[C@@H]5CC[C@@]4(C)[C@]3(C)CC[C@]23CO[C@]1(C)[C@@H](C(=O)/C=C\c1cccnc1)C3" ?
label 0

Per the records of this test, what outcome belongs to "OCCN1CCN(c2nc(Nc3ccc(-c4nc5ccccc5[nH]4)cc3)c3cn[nH]c3n2)CC1" ?
label 1

Status in this test for "COc1ccc(N(C)c2nc(Cl)nc3cnn(C)c23)cc1" ?
label 1

----------
- Tested on: IGROV1 ovarian
- METHOD: NCI-60 one-dose screen, 48 h (100 = growth as untreated, 0 = no growth, -100 = all killed)
- SETUP CONDITIONS: 10 µM
- Description: Growth inhibition of the IGROV1 human tumor cell line is measured as a screen for anti-cancer activity. Cells are grown in 96 well plates and exposed to the test compound for 48 hours. Compounds are tested at a single concentration, which is 10^-5 M for most compounds. The reported endpoint is percent growth (GI% or GIPRCNT), where numbers from 0 - 100% represent growth inhibition, and numbers from -100% - 0 represent cell death. For example, a value of 40 represents 60% growth inhibition. […]
About 83,000 compounds went through this panel and 20% of them were active in at least one assay; those are over-represented in the sample as a whole. The source made the active and inactive calls. Rule for the calls: active = growth percent below 10; inactive = the rest.
QUANTITY NAME: growth

// known answers, use as guide
> print(dat)
                                   compound   observed.result
1  ClCCN(CCCl)c1nc(Cl)c(C2CC(c3ccc(Cl)cc3)=NN2c2cc(Cl)cc(Cl)c2)s1 (configuration not stated)   102% (inactive)
2  CCCCCN(CCCCC)CC(O)c1ccc(C)c(Cl)c1 (configuration not stated)  92.2% (inactive)
3  [N-]=[N+]=NC(C(=O)O)c1ccccc1 (configuration not stated)    98% (inactive)
4    N#Cc1ncc(/N=C/c2ccc(N(CCCl)CCCl)cc2)s1    90% (inactive)
5  O=C1NC(=O)C(=Cc2cn(Cc3ccccc3)c3ccccc23)C(=O)N1   -26.7% (active)

Quick note, growth for CC(N)Cc1ccc(O)cc1 (configuration not stated) landed at 111% (inactive)

Lab note: measured growth of "CC(C)(C)N(Cc1ccccc1)N=O" was 103% (inactive)
